Experiment: Phase-1 drug-drug interaction study in healthy volunteers (Compound (III) 800 mg, SMV 150 mg, Odalasvir 150 mg loading then 50 mg, once daily): plasma PK
Type: in vivo, human
Conditions: both sexes, human, in vivo, Group 2, Day 13 (Compound (III) + SMV); read-out: AUC0-24
readout_label: AUC0-24 (ng·h/mL)
Please respond with the number in ng·h/mL and leave the unit unwritten.

Request: Give AUC0-24 for the following compound: CC(C)OC(=O)[C@H](C)N[P@](=O)(OC[C@@]1(F)O[C@@H](n2ccc(=O)[nH]c2=O)[C@](C)(O)[C@@H]1O)Oc1ccccc1 [Compound (III)]
Response: 1300
